Target: human Spindlin1_50–262 (Homo sapiens, UniProt Q9Y657)
Sequence (Q9Y657 50-262): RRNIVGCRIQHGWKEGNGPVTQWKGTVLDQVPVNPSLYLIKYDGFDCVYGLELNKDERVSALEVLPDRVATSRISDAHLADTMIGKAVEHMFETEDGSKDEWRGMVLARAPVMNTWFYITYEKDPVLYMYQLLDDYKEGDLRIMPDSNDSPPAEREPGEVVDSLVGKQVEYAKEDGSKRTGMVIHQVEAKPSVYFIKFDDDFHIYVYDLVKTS
Type: binding
Parameters: Human Spindlin1_50–262 was cloned into pGEX-6P-1 vector containing an N-terminal GST tag; GST (N, cleaved yes); made in house; host or cells: E. coli BL21(DE3)
Settings: ITC, 25 °C, pH 7.5, free wild-type Spindlin1_50–262
Below, each entry is listed with its recorded ΔS.
Number in cal/mol/deg, nothing else.

The examples below pair each entry with its known result.
Ac-CSFSSAGPCALRFTSARRME-NH2 [HBx61-80, HBx array peptide] : -1.7
Ac-GKGGAKRHRK (me3)VLRDNIQGIT-NH2 [H411-30 K20me3, histone H4 peptide] : -12.3
AARLCCQLDSSRDVLLLRPL-NH2 [GSHBx, ground squirrel HBx N-terminal motif peptide] : 25.3
AARLCCQLDPARDVLCLRPV-NH2 [HBx-D2-21, HBx-D N-terminal motif peptide] : 18.0
AARLCCQLDSARDVLLLRPF-NH2 [WHx, woodchuck HBx N-terminal motif peptide] : 9.96

Prompt: What measured ΔS is associated with Ac-PARDVLCLRPIGAESRGRPL-NH2 [HBx11-30] on human Spindlin1_50–262 (Homo sapiens, UniProt Q9Y657)?
Response: 8.2

Prompt: What measured ΔS is associated with ARTK(m e3)QTAR(me2a)KSTGGKAPRKQL-NH2 [H31-20 K4me3R8me2a, histone H3 peptide] on human Spindlin1_50–262 (Homo sapiens, UniProt Q9Y657)?
Response: -23.6

Prompt: What measured ΔS is associated with ARTK(m e3)QTARK(me2)STGGKA-NH2 [H31-15 K4me3K9me2, histone H3 peptide] on human Spindlin1_50–262 (Homo sapiens, UniProt Q9Y657)?
Response: -15.3

----------
Target: human Spindlin1_50–262 (Homo sapiens)
Format: binding
Parameters: Human Spindlin1_50–262 was cloned into pGEX-6P-1 vector containing an N-terminal GST tag; GST (N, cleaved yes); made in house; host or cells: E. coli BL21(DE3)
Conditions: ITC, 25 °C, pH 7.5, free wild-type Spindlin1_50–262; mean ± SE
QUANTITY MEASURED: ΔH (kal/mol)
Number in kal/mol, nothing else.

The examples below pair each entry with its known result.
AARLCCQLDPARDVLCLRPV-NH2 [HBx-D2-21, HBx-D N-terminal motif peptide] : -3096
ARTK(m e3)QTAR(me2a)KSTGGKAPRKQL-NH2 [H31-20 K4me3R8me2a, histone H3 peptide] : -17280
Ac-CSFSSAGPCALRFTSARRME-NH2 [HBx61-80, HBx array peptide] : -6319
ARTK(m e3)QTARK(me2)STGGKA-NH2 [H31-15 K4me3K9me2, histone H3 peptide] : -14960
AARLCCQLDSARDVLLLRPF-NH2 [WHx, woodchuck HBx N-terminal motif peptide] : -4600
Ac-GKGGAKRHRK (me3)VLRDNIQGIT-NH2 [H411-30 K20me3, histone H4 peptide] : -12920
Ac-PARDVLCLRPIGAESRGRPL-NH2 [HBx11-30] : -3496

API: the following record is the query input.
Prompt: What measured ΔH is associated with AARLCCQLDSSRDVLLLRPL-NH2 [GSHBx, ground squirrel HBx N-terminal motif peptide] on human Spindlin1_50–262 (Homo sapiens)?
Response: -987.3

Provenance of the data: paper PMC10400593
